system: PC3 cells; assay: EB1 Comet (microtubule disruption) assay; type: cell-based, human; details: Homo sapiens, PC-3, 1 h, 1 hour treatment, read-out: EB1 pLAC (converted)
test.readout: minimal effective concentration (µM)
Answers are plain numbers, in µM.

The cases that follow already have their minimal effective concentration on record.
compound: CCc1cc2ccc(C(C)(C#N)Cc3cccc(/C=N/O)c3)cc2[nH]c1=O (centres unmarked)
test.readout: minimal effective concentration
reading: 1

compound: CCc1cc2ccc(C(C)(C#N)Cc3ccc4ccccc4c3)cc2[nH]c1=O (centres unmarked)
test.readout: minimal effective concentration
reading: 1

compound: CCc1cc2ccc(C(C)(C#N)CCOc3ccc(Br)cc3)cc2[nH]c1=O (centres unmarked)
test.readout: minimal effective concentration
reading: 0.316

compound: C=Cc1cccc(CC(C)(C#N)c2ccc3cc(CC)c(=O)[nH]c3c2)c1 (centres unmarked)
test.readout: minimal effective concentration
reading: 0.1

compound: CCc1cc2ccc([C@@](C)(C#N)CCOc3ccc(C#N)cc3)cc2[nH]c1=O (single isomer, unassigned)
test.readout: minimal effective concentration
reading: 0.1

I need minimal effective concentration for every entry listed below, if you could help.
1. CCc1cc2ccc(C(C)(C#N)CN3CCC(c4ccccc4)CC3)cc2[nH]c1=O (centres unmarked)
2. Cc1cc2ccc([C@](C)(C#N)Cc3cccc(C#N)c3)cc2[nH]c1=O
3. CCc1cc2ccc(C(C)(C#N)Cc3cccc(C#Cc4cncn4C)n3)cc2[nH]c1=O (centres unmarked)

1. 0.316
2. 0.316
3. 1

Hey, just so you know, these numbers are from patent US8778966B2.
